Test name: Cell viability assay (CellTiter-Glo) on MOLM-13
Type: cell-based
Assay conditions: human, MOLM-13 cells, 5 µM, average of two biological replicates
Recorded endpoint: viability at 72 h, 5 µM (%)
# output: bare number, implied unit %

These recorded examples may help you get a feel for the data.
Memo: CC1(C)CCN(Cc2cc(F)c(N3CC(=O)NC4(CCN(c5cc(NCc6cccc(CNC(=O)CCCCCCCCn7cc(CNc8cccc9c8C(=O)N(C8CCC(=O)NC8=O)C9=O)nn7)c6)ncn5)CC4)C3)cc2F)CC1 (centres unmarked) [Compound 19] , reported viability at 72 h, 5 µM: 97.1

Memo: CC1(C)CCN(Cc2cc(F)c(N3CC(=O)NC4(CCN(c5cc(NCC6CCN(C(=O)CCCNc7cccc8c7C(=O)N(C7CCC(=O)NC7=O)C8=O)CC6)ncn5)CC4)C3)cc2F)CC1 (centres unmarked) [Compound 22] , reported viability at 72 h, 5 µM: 88.4

***
Memo: CC1(C)CCN(Cc2cc(F)c(N3CC(=O)NC4(CCN(c5cc(NCC6CCN(C(=O)CNc7cccc8c7C(=O)N(C7CCC(=O)NC7=O)C8=O)CC6)ncn5)CC4)C3)cc2F)CC1 (centres unmarked) [Compound 21] , reported viability at 72 h, 5 µM: 110

Memo: CC1(C)CCN(Cc2cc(F)c(N3CC(=O)NC4(CCN(c5cc(NCCN6CCN(C(=O)CCCNc7cccc8c7C(=O)N(C7CCC(=O)NC7=O)C8=O)CC6)ncn5)CC4)C3)cc2F)CC1 (centres unmarked) [Compound 29] , reported viability at 72 h, 5 µM: 94.5

Memo: CC1(C)CCN(Cc2cc(F)c(N3CC(=O)NC4(CCN(c5cc(NCC6CCN(C(=O)CCCNc7ccc8c(c7)C(=O)N(C7CCC(=O)NC7=O)C8=O)CC6)ncn5)CC4)C3)cc2F)CC1 (centres unmarked) [Compound 23] , reported viability at 72 h, 5 µM: 87.3

----------
Test name: Cell viability assay (CellTiter-Glo) on MOLM-13
Type: cell-based
Assay conditions: human, MOLM-13 cells, 0.6 µM, average of two biological replicates
Recorded endpoint: viability at 72 h, 0.6 µM (%)
# output: bare number, implied unit %

Memo: CC1(C)CCN(Cc2cc(F)c(N3CC(=O)NC4(CCN(c5cc(NCc6cccc(CNC(=O)CCCCCCCCn7cc(CNc8cccc9c8C(=O)N(C8CCC(=O)NC8=O)C9=O)nn7)c6)ncn5)CC4)C3)cc2F)CC1 (stereo not shown) , reported viability at 72 h, 0.6 µM: 104

----------
System: SMYD3 (Homo sapiens)
Sequence (Q9H7B4 whole entry): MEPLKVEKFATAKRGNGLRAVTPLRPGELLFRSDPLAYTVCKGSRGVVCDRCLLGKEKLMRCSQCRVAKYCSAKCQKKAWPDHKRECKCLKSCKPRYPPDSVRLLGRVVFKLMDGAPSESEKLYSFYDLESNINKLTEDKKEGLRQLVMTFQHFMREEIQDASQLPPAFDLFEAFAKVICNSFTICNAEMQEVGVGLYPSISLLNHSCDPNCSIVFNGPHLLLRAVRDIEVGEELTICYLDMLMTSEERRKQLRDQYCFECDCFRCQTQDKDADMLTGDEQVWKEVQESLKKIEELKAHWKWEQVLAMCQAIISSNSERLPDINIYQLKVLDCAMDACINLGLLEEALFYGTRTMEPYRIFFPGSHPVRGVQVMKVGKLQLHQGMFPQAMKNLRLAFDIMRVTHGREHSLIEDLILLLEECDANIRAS
Test name: Protein methyltransferases selectivity profile
Type: biochemical
Assay conditions: control compound
Recorded endpoint: pIC50
Value format note: pIC50 is -log10 of concentration (mol/L); just state the number.

Memo: `Nc1ncnc2c1ncn2[C@@H]1O[C@H](CSCC[C@H](N)C(=O)O)[C@@H](O)[C@H]1O` , reported pIC50: 5.07

----------
Each item that follows carries a reported viability at 72 h, 0.6 µM.
Test name: Cell viability assay (CellTiter-Glo) on MOLM-13
Format: cell-based
Assay conditions: human, MOLM-13 cells, 0.6 µM, average of two biological replicates
# output: bare number, implied unit %

These recorded examples may help you get a feel for the data.
Memo: CC1(C)CCN(Cc2cc(F)c(N3CC(=O)NC4(CCN(c5cc(NCc6cccc(CNC(=O)CCn7cc(CNc8cccc9c8C(=O)N(C8CCC(=O)NC8=O)C9=O)nn7)c6)ncn5)CC4)C3)cc2F)CC1 (stereo not shown) [Compound 18] , reported viability at 72 h, 0.6 µM: 101

Memo: CC1(C)CCN(Cc2cc(F)c(N3CC(=O)NC4(CCN(c5cc(NCCN6CCN(C(=O)CCCCCNc7cccc8c7C(=O)N(C7CCC(=O)NC7=O)C8=O)CC6)ncn5)CC4)C3)cc2F)CC1 (stereo not shown) [Compound 30] , reported viability at 72 h, 0.6 µM: 91.3

Memo: CC1(C)CCN(Cc2cc(F)c(N3CC(=O)NC4(CCN(c5cc(NCc6cccc(CNC(=O)CCCCCCCCCCn7cc(CNc8cccc9c8C(=O)N(C8CCC(=O)NC8=O)C9=O)nn7)c6)ncn5)CC4)C3)cc2F)CC1 (stereo not shown) [Compound 20] , reported viability at 72 h, 0.6 µM: 101

***
Memo: CC1(C)CCN(Cc2cc(F)c(N3CC(=O)NC4(CCN(c5cc(NCCN6CCN(c7cccc8c7C(=O)N(C7CCC(=O)NC7=O)C8=O)CC6)ncn5)CC4)C3)cc2F)CC1 (stereo not shown) [Compound 32] , reported viability at 72 h, 0.6 µM: 106

----------
Test name: Cell viability assay (CellTiter-Glo) on MOLM-13
Type: cell-based
Assay conditions: human, MOLM-13 cells, 1.25 µM, average of two biological replicates
Recorded endpoint: viability at 72 h, 1.25 µM (%)
# output: bare number, implied unit %

Memo: CC1(C)CCN(Cc2cc(F)c(N3CC(=O)NC4(CCN(c5cc(NCCN6CCN(C(=O)CCCCCNc7cccc8c7C(=O)N(C7CCC(=O)NC7=O)C8=O)CC6)ncn5)CC4)C3)cc2F)CC1 (stereo not shown) , reported viability at 72 h, 1.25 µM: 90.9

Memo: CC1(C)CCN(Cc2cc(F)c(N3CC(=O)NC4(CCN(c5cc(NCc6cccc(CNC(=O)CCCCCCCCn7cc(CNc8cccc9c8C(=O)N(C8CCC(=O)NC8=O)C9=O)nn7)c6)ncn5)CC4)C3)cc2F)CC1 (stereo not shown) , reported viability at 72 h, 1.25 µM: 104

Memo: CC1(C)CCN(Cc2cc(F)c(N3CC(=O)NC4(CCN(c5cc(NCCN6CCN(c7cnc(N8CCN(C(=O)CCCNc9cccc%10c9C(=O)N(C9CCC(=O)NC9=O)C%10=O)CC8)nc7)CC6)ncn5)CC4)C3)cc2F)CC1 (stereo not shown) , reported viability at 72 h, 1.25 µM: 90.9

Memo: CC1(C)CCN(Cc2cc(F)c(N3CC(=O)NC4(CCN(c5cc(NCC6CCN(C(=O)CNc7cccc8c7C(=O)N(C7CCC(=O)NC7=O)C8=O)CC6)ncn5)CC4)C3)cc2F)CC1 (stereo not shown) , reported viability at 72 h, 1.25 µM: 105

Memo: CC1(C)CCN(Cc2cc(F)c(N3CC(=O)NC4(CCN(c5cc(NCc6cn(CCCCCCCCCCC(=O)Nc7cccc8c7CN(C7CCC(=O)NC7=O)C8=O)nn6)ncn5)CC4)C3)cc2F)CC1 (stereo not shown) , reported viability at 72 h, 1.25 µM: 88.7

***
Memo: CC1(C)CCN(Cc2cc(F)c(N3CC(=O)NC4(CCN(c5cc(NCC6CCN(C(=O)CCCCCNc7cccc8c7C(=O)N(C7CCC(=O)NC7=O)C8=O)CC6)ncn5)CC4)C3)cc2F)CC1 (stereo not shown) , reported viability at 72 h, 1.25 µM: 95.2

Memo: CC1(C)CCN(Cc2cc(F)c(N3CC(=O)NC4(CCN(c5cc(NCc6cccc(CNC(=O)CCCCCCCCCCn7cc(CNc8cccc9c8C(=O)N(C8CCC(=O)NC8=O)C9=O)nn7)c6)ncn5)CC4)C3)cc2F)CC1 (stereo not shown) , reported viability at 72 h, 1.25 µM: 94.6

Memo: CC1(C)CCN(Cc2cc(F)c(N3CC(=O)NC4(CCN(c5cc(NCC6CCN(C(=O)CCCNc7cccc8c7C(=O)N(C7CCC(=O)NC7=O)C8=O)CC6)ncn5)CC4)C3)cc2F)CC1 (stereo not shown) , reported viability at 72 h, 1.25 µM: 97.8

Memo: CC1(C)CCN(Cc2cc(F)c(N3CC(=O)NC4(CCN(c5cc(NCc6cn(CCCCCCCCC(=O)Nc7cccc8c7CN(C7CCC(=O)NC7=O)C8=O)nn6)ncn5)CC4)C3)cc2F)CC1 (stereo not shown) , reported viability at 72 h, 1.25 µM: 92.6

Memo: CC1(C)CCN(Cc2cc(F)c(N3CC(=O)NC4(CCN(c5cc(NCC6CCN(C(=O)CCCCCCCNc7cccc8c7C(=O)N(C7CCC(=O)NC7=O)C8=O)CC6)ncn5)CC4)C3)cc2F)CC1 (stereo not shown) , reported viability at 72 h, 1.25 µM: 94.8

----------
System: ternary complex CRBN/PROTAC/METTL3–14 (Homo sapiens, UniProt Q86U44+Q96SW2)
Construct: methyltransferase domains (MTD) of METTL3 (residues 354–580); His6 (N, cleaved yes); made in house; host or cells: METTL3-MTD/METTL14-MTD: baculovirus/Sf9; CRBN-TBD: E. coli Rosetta (DE3), co-expressed with BirA
Sequence (Q86U44 354-580): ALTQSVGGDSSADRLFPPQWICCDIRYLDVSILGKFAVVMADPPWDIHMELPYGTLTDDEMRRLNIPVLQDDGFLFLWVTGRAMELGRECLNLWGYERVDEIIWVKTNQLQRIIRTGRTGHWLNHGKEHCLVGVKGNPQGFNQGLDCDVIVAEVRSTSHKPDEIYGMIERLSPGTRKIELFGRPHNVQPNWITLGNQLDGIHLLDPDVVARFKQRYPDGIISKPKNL
Sequence (Q9HCE5 107-395 partner limits assumed): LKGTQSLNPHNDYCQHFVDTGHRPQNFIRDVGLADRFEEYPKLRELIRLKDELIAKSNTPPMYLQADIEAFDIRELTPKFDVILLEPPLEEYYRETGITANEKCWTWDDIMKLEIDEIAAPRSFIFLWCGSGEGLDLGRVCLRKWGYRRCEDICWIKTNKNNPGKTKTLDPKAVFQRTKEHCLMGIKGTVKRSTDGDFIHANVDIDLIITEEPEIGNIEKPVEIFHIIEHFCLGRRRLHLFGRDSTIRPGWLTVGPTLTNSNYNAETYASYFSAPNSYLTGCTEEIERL
Sequence (Q96SW2 318-442): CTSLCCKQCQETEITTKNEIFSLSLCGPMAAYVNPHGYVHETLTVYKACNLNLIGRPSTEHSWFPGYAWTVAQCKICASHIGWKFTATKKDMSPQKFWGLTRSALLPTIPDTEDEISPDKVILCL
Test name: FRET-based ternary complex formation assay (TCFA)
Assay type: binding
Assay conditions: PROTAC concentration at the maximum of the signal in the TCFA
Recorded endpoint: ECmax (nM) ± SD
# output: bare number, implied unit nM

Memo: CC1(C)CCN(Cc2ccc(N3CC(=O)NC4(CCN(c5cc(NCCCNC(=O)CCCCCCCCNc6cccc7c6CN(C6CCC(=O)NC6=O)C7=O)ncn5)CC4)C3)cc2)CC1 (stereo not shown) , reported ECmax (nM) ± SD: 660

Memo: CC1(C)CCN(Cc2cc(F)c(N3CC(=O)NC4(CCN(c5cc(NCc6cccc(CNC(=O)CCn7cc(CNc8cccc9c8C(=O)N(C8CCC(=O)NC8=O)C9=O)nn7)c6)ncn5)CC4)C3)cc2F)CC1 (stereo not shown) , reported ECmax (nM) ± SD: 80

Memo: CC1(C)CCN(Cc2cc(F)c(N3CC(=O)NC4(CCN(c5cc(NCCN6CCN(C(=O)CCCCCCCNc7cccc8c7C(=O)N(C7CCC(=O)NC7=O)C8=O)CC6)ncn5)CC4)C3)cc2F)CC1 (stereo not shown) , reported ECmax (nM) ± SD: 110

meta.source: paper PMC10900215
